system: Liver; test: Half life in mouse liver microsomes; format: ADME, microsome; settings: microsomes
Recorded t1/2 for the following molecules

For orientation, consider the following solved cases.
molecule: CC(C)(N)CNC(=O)C[C@H]1CC[C@]2(CC1)OO[C@]1(O2)C2CC3CC(C2)CC1C3 [OZ277]
experimentalTarget: Liver
metricName: t1/2
observedResult: 2.13 h

molecule: O=C(C[C@H]1CC[C@]2(CC1)OO[C@]1(O2)C2CC3CC(C2)CC1C3)N1CCNCC1
experimentalTarget: Liver
metricName: t1/2
observedResult: 0.802 h

molecule: NC1CCN(C(=O)C[C@H]2CC[C@]3(CC2)OO[C@]2(O3)C3CC4CC(C3)CC2C4)CC1
experimentalTarget: Liver
metricName: t1/2
observedResult: 4.62 h

molecule: NC(=O)CNC(=O)C[C@H]1CC[C@]2(CC1)OO[C@]1(O2)C2CC3CC(C2)CC1C3
experimentalTarget: Liver
metricName: t1/2
observedResult: 2.07 h

molecule: Cc1ncc2n1-c1ccc(Cl)cc1C(c1ccccc1F)=NC2 [MIDAZOLAM]
experimentalTarget: Liver
metricName: t1/2
observedResult: 0.0275 h

Record request: t1/2 value, item NCCNC(=O)C[C@H]1CC[C@]2(CC1)OO[C@]1(O2)C2CC3CC(C2)CC1C3 1.07 h

// t1/2 lookup, key: CC(C)(CN)CNC(=O)C[C@H]1CC[C@]2(CC1)OO[C@]1(O2)C2CC3CC(C2)CC1C3 2.68 h

----------
assay: physchem; conditions: PBS, pH 7.4
Description: Kinetic solubility of the compound in PBS at pH 7.4
metricName: solubility kinetic (µM)
Use µM as the unit, but write only the number.

Return reported solubility kinetic; argument: CC(C)(N)CNC(=O)C[C@@H]1CCC[C@]2(C1)OOC1(O2)C2CC3CC(C2)CC1C3 (stereo partly specified) 429

----------
tested on: Plasmodium berghei; experiment: Antiplasmodial activity against Plasmodium berghei infected in Swiss Webster mouse assessed as cure rate at 4 mg/kg/day administered for 4 days via oral gavage starting at 1 hr post infection measured after 30 days relative to control; assay type: functional
Assign fulfilled to entries whose Activity meets or exceeds 40%; assign not fulfilled to the rest.

A selection of reference data follows.
molecule: NCCNC(=O)C[C@H]1CC[C@]2(CC1)OO[C@]1(O2)C2CC3CC(C2)CC1C3
cat: not fulfilled
//
molecule: N[C@H]1CC[C@H](NC(=O)C[C@H]2CC[C@]3(CC2)OO[C@]2(O3)C3CC4CC(C3)CC2C4)CC1
cat: fulfilled
//
molecule: N[C@H]1CC[C@H](NC(=O)C[C@@H]2CCC[C@]3(C2)OOC2(O3)C3CC4CC(C3)CC2C4)CC1 (stereo partly specified)
cat: fulfilled
//
molecule: O=C(C[C@H]1CC[C@]2(CC1)OO[C@]1(O2)C2CC3CC(C2)CC1C3)N1CCNCC1
cat: fulfilled

Next, consider the following molecule.
Given the entry CN1CCN(C(=O)C[C@@H]2CCC[C@]3(C2)OOC2(O3)C3CC4CC(C3)CC2C4)CC1 (stereo partly specified) , answer whether its Activity meets or surpasses 40%. not fulfilled

----------
test: in vitro; conditions: mouse, liver microsomes
Description: Intrinsic clearance in mouse liver microsomes assessed per mg of protein
metricName: microsomal CLint (µL/min/mg)
The reply should be a number in µL/min/mg, with the unit left off.

Some compounds with recorded microsomal CLint:
compound: CC(C)(N)CNC(=O)C[C@@H]1CCC[C@]2(C1)OOC1(O2)C2CC3CC(C2)CC1C3 (stereo partly specified)
metricName: microsomal CLint
observedResult: 4.1

compound: O=C(C[C@@H]1CCC[C@]2(C1)OOC1(O2)C2CC3CC(C2)CC1C3)N1CCNCC1 (stereo partly specified)
metricName: microsomal CLint
observedResult: 27.2

compound: NC(=O)CNC(=O)C[C@@H]1CCC[C@]2(C1)OOC1(O2)C2CC3CC(C2)CC1C3 (stereo partly specified)
metricName: microsomal CLint
observedResult: 18.6

compound: CC(C)(CN)CNC(=O)C[C@@H]1CCC[C@]2(C1)OOC1(O2)C2CC3CC(C2)CC1C3 (stereo partly specified)
metricName: microsomal CLint
observedResult: 10.8

# query: microsomal CLint of entry NC1CCN(C(=O)C[C@@H]2CCC[C@]3(C2)OOC2(O3)C3CC4CC(C3)CC2C4)CC1 (stereo partly specified) 8.2

Sample NCCNC(=O)C[C@@H]1CCC[C@]2(C1)OOC1(O2)C2CC3CC(C2)CC1C3 (stereo partly specified) — what was its microsomal CLint? 8.2
